These entries and their values trace back to PubChem BioAssay (NCATS).

Test system: C33A
Test: Primary qHTS to identify gynecologic anti-cancer compounds using libraries of approved drugs and bioactive compounds (AID 1345084); further: nearly all actives have a fitted effect of over 55% in size
Details: Gynecologic cancer cell panel viability, ATPlite luminescence, 48 h; series mostly up to 57.5 µM
Results filed as inconclusive are left out. Activity calls are given as the source filed them. The call rests on the fitted dose curve; in most records, active means well fitted cell-killing curve with a large enough effect; inconclusive means small, poorly fitted or top-dose-only effect, or effect the other way; inactive means flat fitted curve, though single readings scatter.
# output must be one of YES = active, NO = inactive

Recorded results for 4 molecules are shown here.
molecule	class
CN1CC[C@H](c2c(O)cc(O)c3c(=O)cc(-c4ccccc4Cl)oc23)[C@H](O)C1	YES
O=C(OCC1(COC(=O)c2cccnc2)CCCC(COC(=O)c2cccnc2)(COC(=O)c2cccnc2)C1O)c1cccnc1	NO
CCc1cc2cc(OC)c(OC)cc2c(Cc2ccccc2)n1	NO
CC(C)NC(=O)c1ccc(C=O)cc1	NO

Could you check what this test reported for CCCCCOc1ccc(C2SC(=O)NC2=O)cc1OCC (stereo unspecified) ?
NO

Could you check what this test reported for `COC(=O)c1cc(S(N)(=O)=O)ccc1OC` ?
NO

----------
Test system: Tov-21-G
Experiment: Primary qHTS to identify gynecologic anti-cancer compounds using libraries of approved drugs and bioactive compounds (AID 1345084); further: nearly all actives have a fitted effect of over 55% in size
Settings: Gynecologic cancer cell panel viability, ATPlite luminescence, 48 h; series mostly up to 57.5 µM
Inconclusive results are not listed. Activity calls are given as the source filed them. The call rests on the fitted dose curve; in most records, active means well fitted cell-killing curve with a large enough effect; inconclusive means small, poorly fitted or top-dose-only effect, or effect the other way; inactive means flat fitted curve, though single readings scatter.
# output must be one of T = active, F = inactive

Could you check what this test reported for `CO/N=C(/C(=O)N[C@@H]1C(=O)N2C(C(=O)O)=C(Cn3nnc(C)n3)CS[C@H]12)c1csc(N)n1` ?
F

Could you check what this test reported for `CN1CCCN=C1/C=C/c1cccs1` ?
F

Could you check what this test reported for `CN1N=C(C(N)=O)CCC1=O` ?
F

Could you check what this test reported for CC(C)OC(=O)c1cc2c(OCC(O)CNC(C)(C)C)cccc2[nH]1 (centres undefined) ?
F

Could you check what this test reported for CCCCCC1Nc2cc(C(F)(F)F)c(S(N)(=O)=O)cc2S(=O)(=O)N1 (centres undefined) ?
F

Could you check what this test reported for `C[C@H](CN1CCCC1)C(=O)c1ccc(C(F)(F)F)cc1` ?
F

Could you check what this test reported for `COCCc1ccccn1` ?
F

Could you check what this test reported for `CCN(CC)CC(=O)OCC(=O)[C@@]1(O)CC[C@H]2[C@@H]3CCC4=CC(=O)CC[C@]4(C)[C@H]3[C@@H](O)C[C@@]21C` ?
F

Could you check what this test reported for `CCOC(=O)c1ccc(NC(=O)CN2CCCCC2)cc1` ?
F

Could you check what this test reported for `COc1ccc(/C(C)=C/C(=O)O)c(OC)c1` ?
F

----------
Tested on: C33A
Assay: Primary qHTS to identify gynecologic anti-cancer compounds using libraries of approved drugs and bioactive compounds (AID 1345084); further: nearly all actives have a fitted effect of over 55% in size
Conditions: Gynecologic cancer cell panel viability, ATPlite luminescence, 48 h; series mostly up to 57.5 µM
Records with an inconclusive call do not appear. Active and inactive are the calls of the source. Calls follow the shape of the dose curve; as a rule, active = well fitted cell-killing curve with a large enough effect; inconclusive = small, poorly fitted or top-dose-only effect, or effect the other way; inactive = flat fitted curve, though single readings scatter.
endpoint_label: outcome

Before answering, review these 5 worked examples.
molecule	outcome
CC(CC1c2ccccc2CCc2ccccc21)CN(C)C (stereo unspecified)	inactive
CC(C)(c1ccc(O)cc1)c1ccc(O)cc1	inactive
O=C(O)c1ccccc1S	inactive
CC1(C)O[C@@H]2C[C@H]3[C@@H]4CCC5=CC(=O)C=C[C@]5(C)[C@@]4(F)[C@@H](O)C[C@]3(C)[C@]2(C(=O)CO)O1	inactive
CCOC(=O)Oc1ccc(CCNC(=O)[C@H](CCSC)NC(C)=O)cc1OC(=O)OCC	inactive

# input for lookup
Entry `O=C(O)/C=C(\CC(=O)O)C(=O)O` needs its outcome filled in; supply it.
inactive
